Target: TNKS 174-649, O95271
Sequence (O95271 174-649): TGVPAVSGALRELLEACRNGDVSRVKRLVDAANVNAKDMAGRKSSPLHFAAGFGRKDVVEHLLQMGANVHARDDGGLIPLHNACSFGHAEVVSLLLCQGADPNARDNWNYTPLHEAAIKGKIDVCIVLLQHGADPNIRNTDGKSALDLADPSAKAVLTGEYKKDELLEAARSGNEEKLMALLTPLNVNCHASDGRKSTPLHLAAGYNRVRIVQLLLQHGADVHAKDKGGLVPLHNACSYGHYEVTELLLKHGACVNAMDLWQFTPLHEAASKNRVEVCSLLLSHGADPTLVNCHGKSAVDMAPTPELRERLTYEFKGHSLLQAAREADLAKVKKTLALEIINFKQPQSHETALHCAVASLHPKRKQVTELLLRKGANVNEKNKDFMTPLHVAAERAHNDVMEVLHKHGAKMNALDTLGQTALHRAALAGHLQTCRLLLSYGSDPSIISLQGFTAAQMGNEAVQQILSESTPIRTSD
endpoint.label: selected by phage display

Consider the reported selected by phage display for these binders:
binder="IGRISAEGGEQVERVV [APOL2, Q9BQE5]" result="confidence 3 (active)"
binder="EERPEVLGQRSTDVVD [STK36, Q9NRP7]" result="confidence 2 (active)"
binder="TSVVGFSADGMRPEAI [MAP4K4, O95819]" result="confidence 2 (active)"
binder="DGVARTPPVGMSGQVA [KIF26A, Q9ULI4]" result="confidence 3 (active)"
binder="DYVLTYNYEGRGSPAG [DSC3, Q14574]" result="confidence 2 (active)"
binder="QTIERMGSGVERMGPA [HNRNPM, P52272]" result="confidence 3 (active)"

Request: Query selected by phage display for RTESIRWLIPGQEQEH [TXNDC15, Q96J42]
Response: confidence 3 (active)

Request: Tell me measured selected by phage display for GGLDGPRLAIPGMDGG [PAN3, Q58A45] please.
Response: confidence 3 (active)

Request: Provide selected by phage display value for the following binder: EEDADTMRLQPIGRDK [RSF1, Q96T23]
Response: confidence 3 (active)

Request: Answer with reported selected by phage display of ARQEPQGQEHQVDNTV [AMOTL1, Q8IY63]
Response: confidence 3 (active)

Request: State, in one line, measured selected by phage display of GGGPDRLEPEMVRMVV [NAB2, Q15742]
Response: confidence 2 (active)

Request: Item ERSSGDGEELERLTKP [SLC35A5, Q9BS91] : provide selected by phage display
Response: confidence 3 (active)

Request: Specify reported selected by phage display for the binder shown: DIRGLAAGSAETLPAN [PPFIA1, Q13136]
Response: confidence 2 (active)

Request: Respond only with selected by phage display recorded for RQEALGAEHNSSALLP [AKAP13, Q12802]
Response: confidence 3 (active)
